System Tested: HLA-A*24:02 (Homo sapiens, UniProt P04439, D101N/D140Y/D185E/E176V/E190D/F33S/G103R/G107R/I119L/I121M/I306V/K335N/L105A/L180Q/L300P/N151K/N90K/Q86E/Q94H/R106L/R138H/R89G/T104I/T345S/V100E/W191G/Y123F)
Protocol Summary: In vitro binding of neoantigens to class I MHC (UV peptide exchange, HLA class I ELISA)
Condition Notes: 100% = same binding affinity as positive control peptide
Please provide measured Exchange rate with Pos peptide, HLA-A*24:02 for the entries that follow.
One number for each entry, in %.

For each listed entry, give its Exchange rate with Pos peptide, HLA-A*24:02.
1. DSSGNLLERNSFEVRV (listed as Homo sapiens) [Neoantigen P73, TP53 (G266E)]
2. YEAGMTLGGKILFFLFLLLPLSPFSLIF (listed as Homo sapiens) [Neoantigen P87, AR-Intron]
3. YEAGMTLGEKFRVGNCKHLKMTRP (listed as Homo sapiens) [Neoantigen P82, AR-V7]
4. MFENGCYLGRQKRFKCE (listed as Homo sapiens) [Neoantigen P61, FOXAl.p.R261G]
5. SLYHREKQLIAMDSAI (listed as Homo sapiens) [Neoantigen P22, 5LC45A3-ELK4]

Output line:
1. 0.5
2. 0.2
3. −0.1
4. 90.3
5. 0

Input line: Any idea what Exchange rate with Pos peptide, HLA-A*24:02 was measured for GYLRMQGLMAQRLLLR (listed as Homo sapiens) [Neoantigen P97, FOXRED2-TXN2] ?
Output line: 0.1

----------
System Tested: HLA-A*03:01 (Homo sapiens, UniProt P04439)
Protocol Summary: In vitro binding of neoantigens to class I MHC (UV peptide exchange, HLA class I ELISA)
Condition Notes: 100% = same binding affinity as positive control peptide
Label condition not met if Exchange rate with Pos peptide, HLA-A*03:01 falls below 4%; label condition met in every other case.

Consider the following illustrative entries.
[[record]]
sequence_code = "VQPIARELYQFTFDLLI (listed as Homo sapiens) [Neoantigen P48, AR.p.H875Y]"
assigned_label = "condition met"

[[record]]
sequence_code = "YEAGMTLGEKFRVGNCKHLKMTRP (listed as Homo sapiens) [Neoantigen P82, AR-V7]"
assigned_label = "condition met"

[[record]]
sequence_code = "DSSGNLLERNSFEVRV (listed as Homo sapiens) [Neoantigen P73, TP53 (G266E)]"
assigned_label = "condition not met"


Input line: Tell me whether Exchange rate with Pos peptide, HLA-A*03:01 is at least 4% here: GVPGDSTRRAVRRMNTF [P17] (listed as Homo sapiens) [Neoantigen P17, MSMB-NOCA4]
Output line: condition not met

Input line: Tell me whether Exchange rate with Pos peptide, HLA-A*03:01 is at least 4% here: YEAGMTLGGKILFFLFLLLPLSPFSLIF (listed as Homo sapiens) [Neoantigen P87, AR-Intron]
Output line: condition not met

Input line: Tell me whether Exchange rate with Pos peptide, HLA-A*03:01 is at least 4% here: CYLRRQKRLKCEKQPGA (listed as Homo sapiens) [Neoantigen P60, FOXA1.p.F266L]
Output line: condition met
